Source listed as the supplement of paper PMC6953052.

- Tested on: CbCln3 +/+ GFP-LC3 cerebellar neuronal cells
- test: fraction of GFP-LC3-positive cells (≥5 vesicles/cell); higher = more autophagosome accumulation
In all, about 1,700 compounds were measured (“fraction of GFP-LC3-positive cells (≥5 vesicles/cell)”: median about 0.058, highest 2% from about 0.59 on). The list comes from a sample in which the highest values are over-represented; it also holds close analogues and randomly drawn compounds.
Assign True whenever fraction of GFP-LC3-positive cells does not fall below 0.06; assign False whenever it does.

compound	className
NC[C@H]1O[C@H](OC2[C@@H](N)C[C@@H](N)[C@H](O)[C@H]2O[C@@H]2O[C@H](CO)[C@@H](O)[C@H]2O)[C@H](N)[C@@H](O)[C@@H]1O.O=S(=O)(O)O (some centres undefined) [Ribostamycin sulfate salt]	False
O=C(O)CCc1nc(-c2ccccc2)c(-c2ccccc2)o1 [Oxaprozin]	False
O=C(O)c1ccccc1OP(=O)(O)O [Fosfosal]	False
CC(C)N1CCN(c2ccc(OC[C@H]3CO[C@](Cn4cncn4)(c4ccc(Cl)cc4Cl)O3)cc2)CC1 [Terconazole]	True
NCCc1c[nH]cn1	False
N/C(=N\C(=O)c1nc(Cl)c(N)nc1N)NCc1ccccc1	False
O.O.O=c1c(O)c(-c2ccc(O)c(O)c2)oc2cc(O)cc(O)c12 [Quercetine dihydrate]	True
COc1ccc2c(c1)C(=O)N(CCc1ccc(S(=O)(=O)NC(=O)NC3CCCCC3)cc1)C(=O)C2(C)C [Gliquidone]	True

* * *

- Test system: CbCln3 +/+ GFP-LC3 cerebellar neuronal cells
- test: fraction of GFP-LC3-positive cells (≥5 vesicles/cell); higher = more autophagosome accumulation
In all, about 1,700 compounds were measured (“fraction of GFP-LC3-positive cells (≥5 vesicles/cell)”: median about 0.058, highest 2% from about 0.59 on). What follows is part of a selection rich in the highest values, with near analogues and random picks from the rest.

molecule	fraction of GFP-LC3-positive cells
Clc1ccc(C(Cn2ccnc2)OCc2csc3c(Cl)cccc23)c(Cl)c1.O=[N+]([O-])O (stereo not given) [Sertaconazole nitrate]	0.0474
O=C(/C=C/c1ccc(O)c(O)c1)OCCc1ccccc1	0.624
C[C@]12CC[C@@H]3c4ccc(O)cc4CC[C@H]3[C@@H]1CCC2=O [Estrone]	0.0194
CC1=C(C(=O)O)N2C(=O)[C@@H](NC(=O)[C@H](N)c3ccccc3)[C@H]2SC1.O [Cephalexin monohydrate]	0.0422
CCOC(=O)C1=C[C@]2(CC)CCCN3CCc4c(n1c1ccccc41)[C@@H]32 [Vinpocetine]	0.0378
